Entries annotated with measured melting point
Endpoint Label: melting point

Compound	Data Value
Cl.Oc1cccc2c1CCCC(NC[C@H](O)COc1ccccc1)C2 (some centres unmarked)	73 to 84 °C (dec.)
Cl.Oc1ccc2c(c1)CCCC(NC[C@H](O)COc1ccccc1)C2 (some centres unmarked)	53.5 °C (dec.)
Cl.Oc1cc2c(cc1Cl)CC(N(Cc1ccccc1)C[C@H](O)COc1ccccc1)CCC2 (some centres unmarked)	94 to 99 °C (dec.)
O=c1[nH]c2cccc(OCC(O)CN(Cc3ccccc3)C3CCCc4cc(O)ccc4C3)c2[nH]1 (centres unmarked)	111 to 133 °C (dec.)
Cl.O=c1[nH]c2cccc(OCC(O)CNC3CCCc4cc(O)ccc4C3)c2[nH]1 (centres unmarked)	100.5 °C (dec.)

All figures here come from patent US6635634B2.
